Assay: In vitro proteolysis assay in rat serum
Format: in vitro ADME
Conditions: male, Sprague Dawley, diluted 1/100, incubation 8 min, mean±SEM, read-out: Residual concentration
Ends that are not written are not given here.
property: remaining at 8 min, 15 µM (%)
# output: bare number, implied unit %

Input: Endpoint output: remaining at 8 min, 15 µM of YADAIFTAAYRKVLAQLSARKALQDIMSR-NH2 [GHRH analogue #2] . Value?
Output: 83

---

Assay: In vitro proteolysis assay in rat serum
Format: in vitro ADME
Conditions: male, Sprague Dawley, diluted 1/100, incubation 60 min, mean±SEM, read-out: Residual concentration
Ends that are not written are not given here.
property: remaining at 1 h, 15 µM (%)
# output: bare number, implied unit %

Input: Endpoint output: remaining at 1 h, 15 µM of YADAIFTAAYRKVLAQLSARKALQDIMSR-NH2 [GHRH analogue #2] . Value?
Output: 29
